tested on: Enterococcus faecium ATCC 700221 (VRE); test: Broth microdilution MIC, E. faecium ATCC 700221 (VRE); assay type: cell-based; design: unit: ug/mL; details: broth microdilution, 37° C., 20 hours
Structures can show the parent of a compound that is named as a salt.
Reported property: MIC E. faecium ATCC 700221 (VRE)

Exercise: I'd like to know its MIC E. faecium ATCC 700221 (VRE). The molecule in question is "COC(=O)COCCn1ncc2nc(NCc3ccc(Cl)c(Cl)c3)[nH]c(=O)c21"
Key: 4/4

Exercise: I'd like to know its MIC E. faecium ATCC 700221 (VRE). The molecule in question is "O=c1[nH]c(NCc2ccc(Cl)c(Cl)c2)nc2cnn(CCSCCO)c12"
Key: 2/2

Exercise: I'd like to know its MIC E. faecium ATCC 700221 (VRE). The molecule in question is O=c1[nH]c(NCc2ccc(Cl)c(Cl)c2)nc2cnn(CC3CCCO3)c12 (stereo not drawn)
Key: 2/4

Exercise: I'd like to know its MIC E. faecium ATCC 700221 (VRE). The molecule in question is "Cl.O=c1[nH]c(NCc2ccc(Cl)c(Cl)c2)nc2cnn(CCc3ccccn3)c12"
Key: 2/2

Exercise: I'd like to know its MIC E. faecium ATCC 700221 (VRE). The molecule in question is O=c1[nH]c(NCc2ccc(Cl)c(Cl)c2)nc2cnn(C3CCN(c4cccnc4)CC3)c12 [Compound 163, dihydrochloride]
Key: 2/2

Exercise: I'd like to know its MIC E. faecium ATCC 700221 (VRE). The molecule in question is "Cl.O=c1[nH]c(NCc2ccc(Cl)c(Cl)c2)nc2cnn(CCc3cccnc3)c12"
Key: 2/2

Exercise: I'd like to know its MIC E. faecium ATCC 700221 (VRE). The molecule in question is "O=c1[nH]c(NCc2ccc(Cl)c(Cl)c2)nc2cnn(Cc3ncccn3)c12"
Key: 4/4

Exercise: I'd like to know its MIC E. faecium ATCC 700221 (VRE). The molecule in question is "Cl.O=c1[nH]c(NCc2ccc(Cl)c(Cl)c2)nc2cnn(CCOc3ccc(CO)nc3)c12"
Key: 2/2

Exercise: I'd like to know its MIC E. faecium ATCC 700221 (VRE). The molecule in question is "Cn1nc(C#N)c2nc(NCc3ccc(Cl)c(Cl)c3)[nH]c(=O)c21"
Key: 2/2

Exercise: I'd like to know its MIC E. faecium ATCC 700221 (VRE). The molecule in question is "N#CCOCCn1ncc2nc(NCc3ccc(Cl)c(Cl)c3)[nH]c(=O)c21"
Key: 2/2

Exercise: I'd like to know its MIC E. faecium ATCC 700221 (VRE). The molecule in question is "Cl.O=c1[nH]c(NCc2ccc(Cl)c(Cl)c2)nc2cnn(Cn3cncn3)c12"
Key: 2/4

Exercise: I'd like to know its MIC E. faecium ATCC 700221 (VRE). The molecule in question is "CSCOCCOCCn1ncc2nc(NCc3ccc(Cl)c(Cl)c3)[nH]c(=O)c21"
Key: 2/4

Exercise: I'd like to know its MIC E. faecium ATCC 700221 (VRE). The molecule in question is "O=c1[nH]c(NCc2ccc(Cl)c(Cl)c2)nc2cnn(CCOC3COC3)c12"
Key: 4/4

Exercise: I'd like to know its MIC E. faecium ATCC 700221 (VRE). The molecule in question is O=c1[nH]c(NCc2ccc(Cl)c(Cl)c2)nc2cnn(CC3CCCN3c3ccccn3)c12 (stereo not drawn) [Compound 182, dihydrochloride]
Key: 4/2

Exercise: I'd like to know its MIC E. faecium ATCC 700221 (VRE). The molecule in question is O=c1[nH]c(NCc2ccc(Cl)c(Cl)c2)nc2cnn(CC3COCCO3)c12 (stereo not drawn)
Key: 4/2

---

system: Enterococcus faecalis ATCC 29212; test: Broth microdilution MIC, E. faecalis ATCC 29212; assay type: cell-based; conditions: ATCC29212, broth microdilution, 37° C., 20 hours, read-out: MIC E. faecalis ATCC 29212
MIC vs 8 µg/mL: less than gives Fulfilled; not less than gives Not fulfilled.

Exercise: Strictly below 8 µg/mL: is that where MIC of CP(C)(=O)CCCCn1nc(F)c2nc(NCc3ccc(F)c(F)c3)[nH]c(=O)c21 [Compound 314] sits?
Key: Not fulfilled

Exercise: Strictly below 8 µg/mL: is that where MIC of COCCOCCn1ncc2nc(NCc3ccc(Cl)c(Cl)c3)[nH]c(=O)c21 [Compound 136] sits?
Key: Fulfilled

Exercise: Strictly below 8 µg/mL: is that where MIC of O=c1[nH]c(NCc2ccc(Cl)c(Cl)c2)nc2cnn(C(CO)CO)c12 [Compound 107] sits?
Key: Not fulfilled

Exercise: Strictly below 8 µg/mL: is that where MIC of COC(=O)CCCCn1ncc2nc(NCc3ccc(Cl)c(Cl)c3)[nH]c(=O)c21 [Compound 218] sits?
Key: Fulfilled

Exercise: Strictly below 8 µg/mL: is that where MIC of O=c1[nH]c(NCc2ccc(Cl)c(Cl)c2)nc2cnn(CC(CO)N3CCOCC3)c12 (stereo not drawn) [Compound 288] sits?
Key: Not fulfilled

Exercise: Strictly below 8 µg/mL: is that where MIC of NS(=O)(=O)CCn1ncc2nc(NCc3ccc(Cl)c(Cl)c3)[nH]c(=O)c21 [Compound 237] sits?
Key: Not fulfilled

Exercise: Strictly below 8 µg/mL: is that where MIC of Cn1ncc2nc(NCc3cc(Cl)c(Cl)cn3)[nH]c(=O)c21.O=C(O)C(F)(F)F [Compound 36] sits?
Key: Not fulfilled

Exercise: Strictly below 8 µg/mL: is that where MIC of O=C(O)CCC(=O)N1CCC(n2ncc3nc(NCc4ccc(Cl)c(Cl)c4)[nH]c(=O)c32)CC1 [Compound 273] sits?
Key: Not fulfilled

Exercise: Strictly below 8 µg/mL: is that where MIC of Cl.O=C(O)C1CC(n2ncc3nc(NCc4ccc(Cl)c(Cl)c4)[nH]c(=O)c32)CN1C(=O)c1ccncc1 (stereo not drawn) [Compound 150] sits?
Key: Not fulfilled

Exercise: Strictly below 8 µg/mL: is that where MIC of O=c1[nH]c(NCc2ccc(Cl)c(Cl)c2)nc2cnn(CCCCO)c12 [Compound 89] sits?
Key: Fulfilled

Exercise: Strictly below 8 µg/mL: is that where MIC of N#CCOCCn1ncc2nc(NCc3ccc(Cl)c(Cl)c3)[nH]c(=O)c21 [Compound 285] sits?
Key: Fulfilled

Exercise: Strictly below 8 µg/mL: is that where MIC of Cl.N=C(N)NCCOCCn1ncc2nc(NCc3ccc(Cl)c(Cl)c3)[nH]c(=O)c21 [Compound 293] sits?
Key: Not fulfilled

Exercise: Strictly below 8 µg/mL: is that where MIC of CN(C)C(=O)c1nn(C)c2c(=O)[nH]c(NCc3ccc(Cl)c(Cl)c3)nc12 [Compound 43] sits?
Key: Not fulfilled

Exercise: Strictly below 8 µg/mL: is that where MIC of CC(=O)N1CCC(Cn2ncc3nc(NCc4ccc(Cl)c(Cl)c4)[nH]c(=O)c32)C1 (stereo not drawn) [Compound 281] sits?
Key: Fulfilled

Exercise: Strictly below 8 µg/mL: is that where MIC of Cl.N=C(N)NCCn1ncc2nc(NCc3ccc(Cl)c(Cl)c3)[nH]c(=O)c21 [Compound 292] sits?
Key: Not fulfilled

Exercise: Strictly below 8 µg/mL: is that where MIC of O=c1[nH]c(NCc2ccc(F)c(F)c2)nc2c(Cl)nn(CCOCCO)c12 [Compound 309] sits?
Key: Not fulfilled

Exercise: Strictly below 8 µg/mL: is that where MIC of Cn1ncc2nc(NCc3nc4ccccc4s3)[nH]c(=O)c21 [Compound 18] sits?
Key: Not fulfilled

Exercise: Strictly below 8 µg/mL: is that where MIC of Cl.O=c1[nH]c(NCc2ccc(Cl)c(Cl)c2)nc2cnn(Cc3coc(C4CCCNC4)n3)c12 (stereo not drawn) [Compound 173] sits?
Key: Not fulfilled

Exercise: Strictly below 8 µg/mL: is that where MIC of Cn1nc(C2C=CCO2)c2nc(NCc3ccc(Cl)c(Cl)c3)[nH]c(=O)c21 (stereo not drawn) [Compound 46] sits?
Key: Not fulfilled

Exercise: Strictly below 8 µg/mL: is that where MIC of Cl.O=c1[nH]c(NCc2ccc(Cl)c(Cl)c2)nc2cnn(CCOCCN3CCOCC3)c12 [Compound 160] sits?
Key: Not fulfilled

Exercise: Strictly below 8 µg/mL: is that where MIC of Cc1cccnc1C(=O)N1CCC(n2ncc3nc(NCc4ccc(Cl)c(Cl)c4)[nH]c(=O)c32)CC1.Cl [Compound 262] sits?
Key: Fulfilled

Exercise: Strictly below 8 µg/mL: is that where MIC of O=C(CCCCn1ncc2nc(NCc3ccc(Cl)c(Cl)c3)[nH]c(=O)c21)NO [Compound 217] sits?
Key: Not fulfilled

Exercise: Strictly below 8 µg/mL: is that where MIC of O=c1[nH]c(NCc2ccc(Cl)c(Cl)c2)nc2c(F)nn(Cc3cocn3)c12 [Compound 306] sits?
Key: Fulfilled

Exercise: Strictly below 8 µg/mL: is that where MIC of CN(C)C(CO)C(=O)N1CCC(n2ncc3nc(NCc4ccc(Cl)c(Cl)c4)[nH]c(=O)c32)CC1.Cl (stereo not drawn) [Compound 279] sits?
Key: Not fulfilled

Exercise: Strictly below 8 µg/mL: is that where MIC of O=C(O)CCCn1ncc2nc(NCc3ccc(Cl)c(Cl)c3)[nH]c(=O)c21 [Compound 145] sits?
Key: Not fulfilled

Exercise: Strictly below 8 µg/mL: is that where MIC of Cc1ccnc(C(=O)N2CCC(n3ncc4nc(NCc5ccc(Cl)c(Cl)c5)[nH]c(=O)c43)CC2)c1.Cl [Compound 264] sits?
Key: Fulfilled

Exercise: Strictly below 8 µg/mL: is that where MIC of O=C(O)CCCCn1nc(F)c2nc(NCc3ccc(Cl)c(Cl)c3)[nH]c(=O)c21 [Compound 209] sits?
Key: Fulfilled

Exercise: Strictly below 8 µg/mL: is that where MIC of Cn1ccnc1Cn1ncc2nc(NCc3ccc(Cl)c(Cl)c3)[nH]c(=O)c21 [Compound 97] sits?
Key: Not fulfilled
